# Target or system: human GLP-1 receptor (Homo sapiens, UniProt P43220)
# Construct: expressed in transfected cells; host or cells: BHK (Baby Hamster Kidney) cells, clone BHK 467-12A KZ-10, stably transfected, with CRE-luciferase reporter
# Sequence (P43220 24-463): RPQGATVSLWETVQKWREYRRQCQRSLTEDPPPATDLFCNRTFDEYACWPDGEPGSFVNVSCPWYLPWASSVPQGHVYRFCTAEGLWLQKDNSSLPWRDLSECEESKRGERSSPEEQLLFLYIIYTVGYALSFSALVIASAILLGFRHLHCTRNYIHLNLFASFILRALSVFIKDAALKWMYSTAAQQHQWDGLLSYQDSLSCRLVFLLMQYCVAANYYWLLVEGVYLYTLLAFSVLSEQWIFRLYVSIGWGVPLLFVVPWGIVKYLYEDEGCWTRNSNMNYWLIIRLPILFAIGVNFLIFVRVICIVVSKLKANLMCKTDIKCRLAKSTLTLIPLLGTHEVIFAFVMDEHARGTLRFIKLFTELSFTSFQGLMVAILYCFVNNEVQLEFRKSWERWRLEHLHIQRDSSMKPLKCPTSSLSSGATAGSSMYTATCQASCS
# Test summary: Human GLP-1 receptor in vitro potency assay (CRE-luciferase reporter, BHK cells)
# Type: cell-based
# Study conditions: Table 4a; BHK cells expressing human GLP-1R, CRE-Luc, 3 hours; read-out: Human GLP-1R potency [EC50 (pM)]
Starred links: 1 amine or outer side, 2 acyl side, 3 side chain; linkers in the order of their positions; H or OH if unused. Non-standard residues stand in square brackets, D forms with d. Groups on a side chain read outwards from the residue. *: point of attachment. C20 diacid = O=C(O)CCCCCCCCCCCCCCCCCCC(=O)*; C18 diacid = O=C(O)CCCCCCCCCCCCCCCCC(=O)*; C16 diacid = O=C(O)CCCCCCCCCCCCCCC(=O)*; γGlu = O=C(O)[C@H](CCC(=O)[*:2])N[*:1]; AEEA = NCCOCCOCC(=O)O; Aib = CC(C)(N)C(=O)O
Threshold-based label: EC50 under 3 pM gives fulfilled, EC50 not under 3 pM gives not fulfilled.

>  <Substance>
H-H[Aib]EGTFTSDVSSYLEEQAAREFIAWLVRGRK([AEEA-AEEA-AEEA-γGlu-C18 diacid])GGGGEASELSTAALGRLSAELHELATLPRTETGSGSP-NH2 [Compound 0661]

>  <Label>
fulfilled

$$$$
>  <Substance>
H-H[Aib]EGTFTSDVSSYLEEK([AEEA-AEEA-γGlu-C16 diacid])AAREFIAWLVRGRGGGGGEASELSTAALGRLSAELHK([AEEA-AEEA-γGlu-C16 diacid])LATLPRTETGSGSP-NH2 [Compound 0299]

>  <Label>
not fulfilled

$$$$
>  <Substance>
H-H[Aib]EGTFTSDVSK([AEEA-AEEA-γGlu-C16 diacid])YLEEQAARK([AEEA-AEEA-γGlu-C16 diacid])FIEWLVRGRGEGGGGGASELSTAALGRLSAELHELATLPRTETGSGSP-NH2 [Compound 0576]

>  <Label>
fulfilled

$$$$
>  <Substance>
H-H[Aib]EGTFTSDVSSYLEEQAARK([AEEA-AEEA-γGlu-C20 diacid])FIAWLVRGRGGGGGEASELSTAALGRLSAELHELATLPRTETGSGSP-NH2 [Compound 0562]

>  <Label>
not fulfilled

$$$$
